Target: T1, TNFR1 (Homo sapiens, UniProt P19438)
T1 chain: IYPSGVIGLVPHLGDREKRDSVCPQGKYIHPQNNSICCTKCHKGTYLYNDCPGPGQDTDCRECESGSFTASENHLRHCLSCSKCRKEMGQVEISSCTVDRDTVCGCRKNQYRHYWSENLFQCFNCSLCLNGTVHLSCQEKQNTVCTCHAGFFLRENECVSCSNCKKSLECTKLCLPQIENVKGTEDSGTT
Assay: yeast display SC50
readout.label: apparent Kd (screen) (nM)

Observe how each entry below is paired with its result.
L76M (designed binder) SMEEEVEKAAKEYEKKKKEAIEKHLEKLKAKDKEAAERFLKELEEAAKEYAKDEAKTMSEEEAKRRAKKYKEKVLMSELSEEEQKEIKEAEEKLVRTILKYVEEAAK ... 0.869
L43G (designed binder) SMEEEVEKAAKEYEKKKKEAIEKHLEKLKAKDKEAAERFLKEGEEAAKEYAKDEAKTMSEEEAKRRAKKYKEKVLLSELSEEEQKEIKEAEEKLVRTILKYVEEAAK ... 1.4
S80N (designed binder) SMEEEVEKAAKEYEKKKKEAIEKHLEKLKAKDKEAAERFLKELEEAAKEYAKDEAKTMSEEEAKRRAKKYKEKVLLSELNEEEQKEIKEAEEKLVRTILKYVEEAAK ... 2.73
A63L (designed binder) SMEEEVEKAAKEYEKKKKEAIEKHLEKLKAKDKEAAERFLKELEEAAKEYAKDEAKTMSEEELKRRAKKYKEKVLLSELSEEEQKEIKEAEEKLVRTILKYVEEAAK ... 9.41
E72D (designed binder) SMEEEVEKAAKEYEKKKKEAIEKHLEKLKAKDKEAAERFLKELEEAAKEYAKDEAKTMSEEEAKRRAKKYKDKVLLSELSEEEQKEIKEAEEKLVRTILKYVEEAAK ... 1.4
A47N (designed binder) SMEEEVEKAAKEYEKKKKEAIEKHLEKLKAKDKEAAERFLKELEEANKEYAKDEAKTMSEEEAKRRAKKYKEKVLLSELSEEEQKEIKEAEEKLVRTILKYVEEAAK ... 1.4

a. E86L (designed binder) SMEEEVEKAAKEYEKKKKEAIEKHLEKLKAKDKEAAERFLKELEEAAKEYAKDEAKTMSEEEAKRRAKKYKEKVLLSELSEEEQKLIKEAEEKLVRTILKYVEEAAK
b. K41L (designed binder) SMEEEVEKAAKEYEKKKKEAIEKHLEKLKAKDKEAAERFLLELEEAAKEYAKDEAKTMSEEEAKRRAKKYKEKVLLSELSEEEQKEIKEAEEKLVRTILKYVEEAAK
Prompt: Lab notebook, comparison: a versus b , higher apparent Kd (screen) goes to which? Please identify the chosen entry by its label.
Response: a
